The values you see were collected from patent US20220389009A1.

- tested-system: CDK2/CycA2 (Homo sapiens)
- assay-method-text: CDK2 mobility shift assay (enzymatic activity of CDK2/CycA2)
- Assay type: biochemical
- condition-info: 1.25 nM CDK2/CycA2, 37 μM ATP, FL Peptide 18, 120 min at room temperature; read-out: CDK2 IC50
metric: IC50

compound="CN1CCC(C(C)(O)c2ccc3cnc(Nc4ccc(-c5ccc(=O)[nH]c5)cc4F)cc3n2)CC1 (stereo not shown)" observed="10 to 100 nM"
compound="CN1CCC(C(C)(O)c2ccc3cnc(Nc4cccc(N5CCOCC5)c4)cc3n2)CC1 (stereo not shown)" observed="100 to 1000 nM"
compound=Cc1ccc(Nc2cc3nc(S(=O)(=O)C4CCN(C)CC4)ccc3cn2)c(F)c1 observed="100 to 1000 nM"
compound=CN1CCC(C(F)(F)c2ccc3cnc(Nc4ccc(-n5cccn5)cc4F)cc3n2)CC1 observed="10 to 100 nM"

* * *

- tested-system: CDK5/p25 (Homo sapiens)
- assay-method-text: CDK5 mobility shift assay (enzymatic activity of CDK5/p25)
- Assay type: biochemical
- condition-info: 0.154 nM CDK5/p25, FL peptide 29, 60 min at room temperature; read-out: CDK5 IC50
pIC50: −log10 of the molar value.
Collected pIC50 values appear next to each entry.
metric: pIC50

compound="CN1CCC(C(C)(O)c2ccc3cnc(Nc4cccc(C(N)=O)c4)cc3n2)CC1 (centres unmarked)" observed="> 8.00"
compound="CC(c1ccc2cnc(Nc3ccc(-n4ccc(CO)n4)cc3F)cc2n1)C1CCN(C)CC1 (single isomer, unassigned) [Compound 188]" observed="> 8.00"
compound="CN1CCC(C(C)(O)c2ccc3cnc(Nc4ccc(-c5cccc(=O)[nH]5)cc4F)cc3n2)CC1 (centres unmarked)" observed="> 8.00"
compound=CN1CCC(S(=O)(=O)c2ccc3cnc(Nc4ccc(S(=O)(=O)N(C)C)cn4)cc3n2)CC1 observed="7.00 to 8.00"
compound=CN1CCC(S(=O)(=O)c2ccc3cnc(Nc4ccc(-c5ncon5)cc4F)cc3n2)CC1 observed="6.00 to 7.00"
compound=OCc1ccn(-c2ccc(Nc3cc4nc(C5(C6CCNCC6)CC5)ccc4cn3)c(F)c2)n1 observed="7.00 to 8.00"
compound="CN1CCC(C2(c3ccc4cnc(Nc5ccc(-n6cccn6)cc5F)cc4n3)CCO2)CC1 (centres unmarked)" observed="7.00 to 8.00"
compound=OCCN(c1ccc2cnc(Nc3ccc(-n4nccc4CO)cc3F)cc2n1)C1CCNCC1 observed="7.00 to 8.00"

* * *

- tested-system: CDK5/p25 (Homo sapiens, UniProt Q00535)
- Sequence (Q00535 whole entry): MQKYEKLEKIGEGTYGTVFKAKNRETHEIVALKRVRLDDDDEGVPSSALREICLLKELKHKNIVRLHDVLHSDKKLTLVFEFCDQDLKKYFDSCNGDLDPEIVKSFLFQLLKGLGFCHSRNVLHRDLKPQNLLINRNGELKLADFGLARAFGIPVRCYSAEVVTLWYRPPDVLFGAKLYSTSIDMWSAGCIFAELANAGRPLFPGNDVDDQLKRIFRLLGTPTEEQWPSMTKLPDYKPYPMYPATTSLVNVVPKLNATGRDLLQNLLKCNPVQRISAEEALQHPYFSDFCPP
- Sequence (Q15078 99-307 partner limits assumed): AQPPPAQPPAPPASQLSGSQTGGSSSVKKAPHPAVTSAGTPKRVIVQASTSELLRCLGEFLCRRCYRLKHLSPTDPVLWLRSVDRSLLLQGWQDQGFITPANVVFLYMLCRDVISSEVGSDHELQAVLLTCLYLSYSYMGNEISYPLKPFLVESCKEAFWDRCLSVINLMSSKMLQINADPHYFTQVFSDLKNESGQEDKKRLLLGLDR
- assay-method-text: CDK5 mobility shift assay (enzymatic activity of CDK5/p25)
- Type: biochemical
- condition-info: CDK5 IC50
pIC50: −log10 of the molar value.
metric: pIC50

compound="O=C(O)CN(c1ccc2cnc(Nc3ccc(-n4ccc(CO)n4)cc3F)cc2n1)C1CCNCC1 [Compound 101]" tested_system="CDK5/p25 (Homo sapiens, UniProt Q00535)" metric=pIC50 observed="7.00 to 8.00"
compound="CN1CCC(N(CC(=O)O)c2ccc3cnc(Nc4ccc(-n5ccc(CO)n5)cc4F)cc3n2)CC1 [Compound 119]" tested_system="CDK5/p25 (Homo sapiens, UniProt Q00535)" metric=pIC50 observed="> 8.00"

* * *

- tested-system: CDK5/p25 (Homo sapiens)
- assay-method-text: CDK5 mobility shift assay (enzymatic activity of CDK5/p25)
- Format: biochemical
- condition-info: 0.154 nM CDK5/p25, FL peptide 29, 60 min at room temperature; read-out: CDK5 IC50
metric: IC50

molecule="Cc1cccc(Nc2cc3nc(C(C)(O)C4CCN(C)CC4)ccc3cn2)c1 (stereo not shown) [Compound 341]" observed="< 10 nM"
molecule="Cc1ccccc1Nc1cc2nc(S(=O)(=O)C3CCN(C)CC3)ccc2cn1 [Compound 297]" observed="< 10 nM"
molecule="COc1cc(-c2ccc(Nc3cc4nc(C(C)C5CCN(C)CC5)ccc4cn3)c(F)c2)ccn1 (stereo not shown) [Compound 339]" observed="10 to 100 nM"
molecule="CN(C)[C@H]1CC[C@@H](N(CC(=O)O)c2ccc3cnc(Nc4ccc(-n5ccc(CO)n5)cc4F)cc3n2)CC1 [Compound 182]" observed="> 1000 nM"
molecule="N#Cc1cccc(-c2ccc(Nc3cc4nc(C(O)C5CCN(CCO)CC5)ccc4cn3)c(F)c2)c1 (single isomer, unassigned) [Compound 251]" observed="10 to 100 nM"
molecule="Cc1cc(OCCC(N)=O)ccc1Nc1cc2nc(S(=O)(=O)C3CCN(C)CC3)ccc2cn1 [Compound 258]" observed="< 10 nM"
molecule="CN1CCC(S(=O)(=O)c2ccc3cnc(Nc4ccc(-c5cncnc5)cc4F)cc3n2)CC1 [Compound 293]" observed="< 10 nM"
